FYI, the data here is from PubChem BioAssay AID651952.

- procedure-text: reduced calcium signal in Ga16 cells – fluorescence, CHO-Ga16 cells, counter-screen for TAAR1 agonist project (AID 651952);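 also: 0% = EC80 ATP with DMSO and 100% = DMSO wells without ATP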
- condition-context: CHO-Ga16 ATP-induced calcium, Fluo-8 fluorescence; at 3 µM; active compounds read high
In all, about 2,400 compounds went through this assay and about 940 (39%) were called active. The list is a sample of the results.
assay-metric: inhibition (%)
Report the value in % with no unit label.

Check out these entries, answers already filled in.
{"columns": ["molecule", "assay-metric", "unit-abbrev", "reading"],
 "data": [
  ["c1ccc(CCNC2CCCCCC2)cc1", "inhibition", "%", 2.61],
  ["COc1ccc(Br)cc1CNCCc1cccc(Cl)c1", "inhibition", "%", 14.7],
  ["NCC(O)c1ccc(O)cc1 (configuration not stated)", "inhibition", "%", 3.87],
  ["CC(Cc1ccccc1)NC=O (configuration not stated)", "inhibition", "%", 11.2]
]}

**Query** For the molecule shown here, "CCCCC(=O)N/N=C/c1c(O)n(CC)c(=S)n(CC)c1=O" , give the reported inhibition.
**Result** 64.5

**Query** For the molecule shown here, "Clc1ccc2nc3c(c(-c4ccccc4)c2c1)CNCC3" , give the reported inhibition.
**Result** 0.28

**Query** For the molecule shown here, "O=C1NC(=O)N(Cc2ccco2)C(=O)/C1=C\c1ccc(-c2ccc(F)cc2)o1" , give the reported inhibition.
**Result** 44
